- assay: Quantitative High-Throughput drug screen in 47 multiple myeloma cell lines against the NCATS MIPE library collection: UTMC2_PLB cell viability assay (AID 1919868); note: nearly all actives have a fitted effect of over 55% in size
- condition.label: CellTiter-Glo ATP luminescence, 48 h
Results filed as inconclusive are left out. Activity calls are given as the source filed them. Calls come from the whole dose curve; as a rule, active = well fitted cell-killing curve with a large enough effect; inconclusive = small, poorly fitted or top-dose-only effect, or effect the other way; inactive = no such curve, though single readings can be large or run the other way.
Classes used: active, inactive

- O=[N+]([O-])c1ncc[nH]1: inactive
- COc1ccc2c(c1)[C@]13CCCCC1C(C2)N(C)CC3 (stereo not given in full): inactive
- CCOC(=O)c1c(C(C#N)=CN)c2ccc(Cl)c(Cl)c2n1C: inactive
- O=C1C=CC[C@@H]2[C@H]3CCCN4CCC[C@@H](CN12)[C@@H]34: inactive
- CC(=O)OCC1=C(C(=O)O)N2C(=O)[C@@H](N)[C@@H]2SC1: inactive
- C[C@@H]1CC[C@@]2(OC1)O[C@H]1C[C@H]3[C@@H]4CC=C5C[C@@H](O[C@@H]6O[C@H](CO)[C@@H](O[C@@H]7O[C@@H](C)[C@H](O)[C@@H](O)[C@@H]7O)[C@H](O)[C@@H]6O[C@@H]6O[C@@H](C)[C@H](O)[C@@H](O)[C@@H]6O)CC[C@]5(C)[C@@H]4CC[C@]3(C)[C@@H]1[C@H]2C: active
- CC=C(C)C(=O)O[C@H]1C(C)=C2[C@@H]3OC(=O)[C@@](C)(O)[C@@]3(O)[C@@H](OC(=O)CCC)C[C@](C)(OC(C)=O)[C@@H]2[C@@H]1OC(=O)CCCCCCC: active
- CCCC[N+]1(C)[C@H]2CC(OC(=O)[C@H](CO)c3ccccc3)C[C@H]1[C@H]1O[C@H]12 (stereo not given in full): inactive
- CC(C)N[C@@H]1CCn2c(=O)[nH]c3cccc(c32)[C@@H]1O: active
- NC1CC1c1ccccc1 (stereo not given): inactive
- Cc1ccccc1-n1c(Cn2ncc3c(N)ncnc32)nc2cccc(C)c2c1=O: active
- COc1cc2cc(c1Cl)N(C)C(=O)C[C@H](OC(=O)C(C)C)[C@]1(C)O[C@H]1[C@H](C)[C@@H]1C[C@@](O)(NC(=O)O1)[C@H](OC)C=CC=C(C)C2: inactive
- C=CCON=C(C[C@H]1O[C@@H]2O[C@]3(C)CC[C@@H]4[C@H](C)CC[C@@H]([C@H]1C)[C@@]24OO3)[C@H]1O[C@@H]2O[C@]3(C)CC[C@H]4[C@H](C)CC[C@@H]([C@@H]1C)[C@@]24OO3: active
- COC1=C[C@@H]2[C@@H]3Cc4ccc(OC)c(O)c4[C@]2(CCN3C)CC1=O: active
- Cc1c(N)nc([C@H](CC(N)=O)NC[C@@H](N)C(N)=O)nc1C(=O)N[C@H](C(=O)N[C@@H](C)[C@H](O)[C@@H](C)C(=O)N[C@@H](C(=O)NCCc1nc(-c2nc(C(=O)NCCC[S+](C)C)cs2)cs1)[C@@H](C)O)C(O[C@H]1O[C@H](CO)[C@H](O)[C@@H](O)[C@@H]1O[C@H]1O[C@H](CO)[C@@H](O)[C@H](OC(N)=O)[C@H]1O)c1cnc[nH]1 (stereo not given in full): active

These data points were gathered from PubChem BioAssay (NCATS).
